meta.source: patent US10000476B2

# inhibition in vivo at 10000 µg/mL annotations
Test system: auricular oedema induced by TPA in BALB/c mice
Assay: Inhibition test of auricular oedema induced by single application of TPA in mouse
Format: in vivo
Details: 1 w/v % solution applied topically to ear 1 hour before TPA, auricle thickness 6 hours after TPA, read-out: Auricular oedema inhibition rate (%)
Field format: number, assumed %, no unit text.

The cases that follow already have their inhibition in vivo at 10000 µg/mL on record.
Molecule	inhibition in vivo at 10000 µg/mL / %
Cc1cccn(CC2(c3cccc(-c4cccnc4)c3)NC(=O)NC2=O)c1=O (stereo not shown) [Compound I-62]	47
Cc1cccn(CC2(c3ccc(Oc4ccccc4F)cc3)NC(=O)NC2=O)c1=O (stereo not shown) [Compound I-86]	68
Cc1cccn(CC2(c3ccc(Oc4cccc(F)c4)cc3)NC(=O)NC2=O)c1=O (stereo not shown) [Compound I-84]	53
Cc1cc(C2(Cn3cccc(C)c3=O)NC(=O)NC2=O)ccc1OC1C=CCCC1 (stereo not shown) [Compound I-38]	41
Cc1cccn(CC2(c3ccc(Cc4ccccc4)cc3)NC(=O)NC2=O)c1=O (stereo not shown) [Compound I-40]	63
Cc1cc(C2(Cn3cccc(C)c3=O)NC(=O)NC2=O)cc(C)c1OC1CCCC1 (stereo not shown) [Compound I-129]	71

Now look at this entry.
Asked: What value of inhibition in vivo at 10000 µg/mL has been recorded for this entry: Cc1cccn(CC2(c3ccc(Sc4ccccc4)cc3)NC(=O)NC2=O)c1=O (stereo not shown) [Compound I-102]
Given back: 50

* * *

Target: human MMP-17 (Homo sapiens)
Sequence (Q9ULZ9 126-565 limits assumed): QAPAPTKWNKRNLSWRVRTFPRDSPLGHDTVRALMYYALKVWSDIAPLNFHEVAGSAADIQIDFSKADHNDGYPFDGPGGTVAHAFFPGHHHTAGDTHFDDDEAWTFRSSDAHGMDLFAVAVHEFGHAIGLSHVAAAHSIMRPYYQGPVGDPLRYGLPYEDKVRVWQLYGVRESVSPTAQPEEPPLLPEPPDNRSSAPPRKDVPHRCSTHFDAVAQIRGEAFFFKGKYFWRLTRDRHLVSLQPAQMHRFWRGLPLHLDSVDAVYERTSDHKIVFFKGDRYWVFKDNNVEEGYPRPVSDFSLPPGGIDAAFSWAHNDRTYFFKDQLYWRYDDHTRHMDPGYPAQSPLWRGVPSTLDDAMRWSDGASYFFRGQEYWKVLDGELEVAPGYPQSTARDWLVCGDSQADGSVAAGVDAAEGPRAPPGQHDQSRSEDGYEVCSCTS
Test: MMP-17 inhibition test
Assay type: biochemical
Conditions: read-out: MMPs IC50 MMP-17
pIC50: −log10 of the molar value.
Assay Metric: pIC50

Asked: GET /values?readout=pIC50&system=human MMP-17 (Homo sapiens)&item= Cc1cccn(CC2(c3ccccc3)NC(=O)NC2=O)c1=O (stereo not shown) [Compound I-1]
Given back: < 4.00

* * *

Target: human MMP-8 (Homo sapiens (Human))
Sequence (P22894 101-467): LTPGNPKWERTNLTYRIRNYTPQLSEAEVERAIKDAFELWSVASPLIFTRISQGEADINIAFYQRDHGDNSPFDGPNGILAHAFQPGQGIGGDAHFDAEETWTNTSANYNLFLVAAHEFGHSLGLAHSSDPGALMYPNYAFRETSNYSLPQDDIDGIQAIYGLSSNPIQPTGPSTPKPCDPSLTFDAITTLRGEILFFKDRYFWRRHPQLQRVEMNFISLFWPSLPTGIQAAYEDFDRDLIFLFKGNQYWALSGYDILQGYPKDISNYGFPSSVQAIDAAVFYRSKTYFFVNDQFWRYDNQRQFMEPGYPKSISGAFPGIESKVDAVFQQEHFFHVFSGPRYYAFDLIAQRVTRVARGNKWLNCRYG
# pIC50 per record follows
In textbook form, pIC50 equals minus log to base ten of the concentration in mol/L.

Please review the following examples before continuing.
Compound	Value
COc1ccc(Cl)cc1C1(Cn2cccc(C)c2=O)NC(=O)NC1=O (stereo not shown) [Compound I-27]	4.80
Cc1cccn(CC2(c3cccc(-c4cccnc4)c3)NC(=O)NC2=O)c1=O (stereo not shown) [Compound I-62]	5.30
Cc1cccn(CC2(c3ccc(OCc4ccccc4)cc3)NC(=O)NC2=O)c1=O (stereo not shown) [Compound I-64]	5.21

Asked: I am curious: what pIC50 value has been reported for Cc1cccn(CC2(c3ccccc3)NC(=O)NC2=O)c1=O (stereo not shown) [Compound I-1] ?
Given back: 4.68

* * *

Let's go through some recorded pIC50 values for human MMP-2 (Homo sapiens (Human), UniProt P08253) together.
Convention used: pIC50 is expressed as -log10 of the molar concentration.

Compound	Assay Target	pIC50
Cc1cccn(CC2(c3cccc(-c4cccnc4)c3)NC(=O)NC2=O)c1=O (stereo not drawn) [Compound I-62]	human MMP-2 (Homo sapiens (Human), UniProt P08253)	4.51

Asked: GET /values?readout=pIC50&item= Cc1cccn(CC2(c3ccc(Cc4ccc(F)cc4)cc3)NC(=O)NC2=O)c1=O (stereo not drawn) [Compound I-41]
Given back: 4.16
